OUTCOME_MEASURE: IC50 (nM)
Please respond with the number in nM and leave the unit unwritten.

The compound Cc1c(C)c2ccc(OC3CCN(CCc4ccccc4)CC3)cc2oc1=O , when measured on UniProt O42275, yielded IC50 of 1650

The compound Cc1c(C)c2ccc(OCC3CCCN(Cc4cccc(Cl)c4)C3)cc2oc1=O (racemic) on UniProt O42275: IC50 was 1170

Measured on UniProt O42275, Cc1c(C)c2ccc(OCC3CCCN(Cc4ccc(F)cc4)C3)cc2oc1=O (racemic) has a documented IC50 of 1460
